- assay summary: Ratio of drug level in brain to plasma measured after 24 hrs
- Format: ADME, cell-free
- test context: brain and plasma, read-out: BPR
observation type: Kp at 24 h

cpd_smiles=CC(C)(C)Oc1cc(CCC(C)(C)N2Cc3ccc(S(C)(=O)=O)cc3C2)ccc1O experimental_result=5.7
cpd_smiles=CC(C)Oc1cc(CCC(C)(C)N2Cc3cccc(F)c3C2)ccc1O experimental_result=5.4
cpd_smiles=C[C@H](CCc1ccc(Cl)c(Cl)c1)NCc1ccc(C(F)(F)F)cc1 experimental_result=8.2
cpd_smiles=C[C@H](CCc1ccc(Cl)cc1)NCc1ccc(C(F)(F)F)cc1 experimental_result=2

###

- assay summary: Free drug level in brain
- Format: ADME, tissue-based
observation type: fraction unbound

cpd_smiles=CC(C)(C)Oc1cc(CCC(C)(C)N2Cc3ccc(S(C)(=O)=O)cc3C2)ccc1O observation_type="fraction unbound" experimental_result=0.13
